Test system: FXR (Homo sapiens (Human), UniProt Q96RI1)
Sequence (Q96RI1 262-486): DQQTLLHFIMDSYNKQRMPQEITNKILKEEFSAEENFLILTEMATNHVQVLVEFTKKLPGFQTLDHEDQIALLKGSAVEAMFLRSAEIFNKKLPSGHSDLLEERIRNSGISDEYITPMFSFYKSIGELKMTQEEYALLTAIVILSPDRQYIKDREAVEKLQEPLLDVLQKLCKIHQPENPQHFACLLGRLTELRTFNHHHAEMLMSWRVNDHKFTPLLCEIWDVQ
Experimental protocol: transient human FXR/Gal4-luciferase reporter assay
Type: cell-based
Condition info: Gal4-hFXR fusion construct, HEK293 reporter cells; response relative to 8 μM GW-4064
EC50 values for the compounds below.
Field format: number, assumed nM, no unit text.

Field: example entries. Status: answers known.
{"Entry smiles": "COc1cc(-c2cccc(N(CC34CCC(c5cc(C(F)(F)F)ccn5)(CC3)CC4)C(=O)C3CCC3)c2)ccn1", "Recorded result": 2130}
{"Entry smiles": "COc1cc(-c2cccc(N(CC34CCC(c5nnc(C)s5)(CC3)CC4)C(=O)C3CC(F)(F)C3)c2)ccn1", "Recorded result": 1760}
{"Entry smiles": "COc1ccc(-c2cccc(N(CC34CCC(c5cc(C6CC6)nn5C)(CC3)CC4)C(=O)C34CC(F)(C3)C4)c2)cc1", "Recorded result": 85}
{"Entry smiles": "CO[C@H]1C[C@@H](C(=O)N(CC23CCC(c4noc(C(C)(C)C)n4)(CC2)CC3)c2cccc(-c3ccc(NS(C)(=O)=O)cc3)c2)C1", "Recorded result": 2260}
{"Entry smiles": "Cc1nc2ccc(-c3cncc(N(CC45CCC(c6nc(C7CC7)no6)(CC4)CC5)C(=O)C45CC(F)(C4)C5)c3)cc2s1", "Recorded result": 198}

The compound identified as `CC(C)(F)c1nc(C23CCC(CN(c4cccc(-c5ccc(-c6nonc6N)cc5)c4)C(=O)[C@H]4C[C@](O)(C(F)(F)F)C4)(CC2)CC3)no1` registered its EC50 at 574

Item: `CCOc1ccc(-c2cccc(N(CC34CCC(c5noc(C6(C)CC6)n5)(CC3)CC4)C(=O)C34CC(F)(C3)C4)c2)cn1` | EC50: 42

----------
Catalogue of pEC50 values
Test system: FXR (Homo sapiens (Human))
Experimental protocol: transient human FXR/Gal4-luciferase reporter assay
Assay type: cell-based
Condition info: Gal4-hFXR fusion construct, HEK293 reporter cells; response relative to 8 μM GW-4064
The value called pEC50 is obtained by taking minus log10 of the concentration in mol/L.

Consider the reported pEC50 for these compounds:
{"Entry smiles": "CCc1ccc(-c2cccc(N(CC34CCC(c5noc(C(C)(C)C)n5)(CC3)CC4)C(=O)C34CC(F)(C3)C4)c2)cc1", "Recorded result": 6.97}
{"Entry smiles": "Cc1nc2ccc(-c3cccc(N(CC45CCC(c6cc(C7CC7)n(C)n6)(CC4)CC5)C(=O)C45CC(F)(C4)C5)c3)cc2s1", "Recorded result": 7.14}

Switching to the query record.
Value sought: pEC50, system FXR (Homo sapiens (Human)), item `Cc1nc2ncc(-c3cccc(N(CC45CCC(c6nc(C(C)C)no6)(CC4)CC5)C(=O)C45CC(F)(C4)C5)c3)cc2s1` . Result: 7.21

----------
Test system: FXR (Homo sapiens (Human))
Experimental protocol: transient human FXR/Gal4-luciferase reporter assay
Type: cell-based
Condition info: Gal4-hFXR fusion construct, HEK293 reporter cells; response relative to 8 μM GW-4064
Measured pEC50, listed per entry.
Interpret pEC50 as the negative base-10 log of the concentration measured in mol/L.

Input COCc1ccc(-c2cccc(N(CC34CCC(c5nc(C(C)C)no5)(CC3)CC4)C(=O)C34CC(F)(C3)C4)c2)cn1 [Example 391] . Output pEC50: 6.83

For reference, reported pEC50 for CC(C)(O)c1ccc(-c2cccc(N(CC34CCC(c5noc(C(C)(C)F)n5)(CC3)CC4)C(=O)[C@H]3C[C@](O)(C(F)(F)F)C3)c2)nn1 [Example 593] stands at 6.25

Input CCOc1cnc(-c2cccc(N(CC34CCC(c5nc(C(C)(C)C)no5)(CC3)CC4)C(=O)C34CC(F)(C3)C4)c2)nc1 [Example 370] . Output pEC50: 6.92

# molecule CC(C)(C)c1nc(C23CCC(CN(C(=O)C45CC(F)(C4)C5)c4cccc(-c5cnc6nc(C7CC7)sc6c5)c4)(CC2)CC3)no1 [Example 458] ; its pEC50 = 6.60

Note to self: pEC50 recorded for O=C(C1CC(F)(F)C1)N(CC12CCC(c3nc(C4CC4)no3)(CC1)CC2)c1cccc(-c2ccnc(OC3CC3)n2)c1 [Example 338] was 5.86

Field pEC50 (entry Cc1ccc(-c2cccc(N(CC34CCC(c5nc(C6CC6)no5)(CC3)CC4)C(=O)C34CC(F)(C3)C4)c2)nn1 [Example 295] ) reads 6.08

For reference, reported pEC50 for COc1ccc(-c2cccc(N(CC34CCC(c5cc(C6CC6)n(C)n5)(CC3)CC4)C(=O)C34CC(F)(C3)C4)c2)cc1 [Example 408] stands at 6.80

get_value(item= CC(C)Oc1ccc(-c2cc(N(CC34CCC(c5noc(C(C)(C)F)n5)(CC3)CC4)C(=O)N[C@H]3CC[C@](C)(OC(F)F)CC3)ccc2F)cc1 [Example 653] , readout=pEC50) returns 6.84

# molecule Cc1ccnc(-c2cccc(N(CC34CCC(c5nc(C6CC6)no5)(CC3)CC4)C(=O)C34CC(F)(C3)C4)c2)n1 [Example 300] ; its pEC50 = 6.38

The reported value for O=C(N(CC12CCC(c3nc(C4CC4)no3)(CC1)CC2)c1cccc(-c2cccc(OC(F)(F)F)c2)c1)C12CC(F)(C1)C2 [Example 259] in terms of pEC50 is 6.57

----------
Test system: FXR (Homo sapiens (Human))
Experimental protocol: transient human FXR/Gal4-luciferase reporter assay
Assay type: cell-based
Condition info: Gal4-hFXR fusion construct, HEK293 reporter cells; response relative to 8 μM GW-4064
pEC50 values, listed per item
The meaning of pEC50 here: minus log10 of the concentration in molar units.

// known answers, use as guide
{"Entry smiles": "CC(C)(F)c1nc(C23CCC(CN(C(=O)OC(C)(C)C(F)(F)F)c4cccc(-c5ccc(C6(C#N)CC6)c(F)c5)c4)(CC2)CC3)no1", "pEC50": 7.11}
{"Entry smiles": "CC(C)(C)c1nc(C23CCC(CN(C(=O)C45CC(F)(C4)C5)c4cccc(-c5cnc(C6CC6)nc5)c4)(CC2)CC3)no1", "pEC50": 7.15}

For `CC(C)(C)c1nc(C23CCC(CN(C(=O)C45CC(F)(C4)C5)c4cccc(-c5ccc6c(c5)OC(F)(F)O6)c4)(CC2)CC3)no1` the molecule record lists pEC50 as 6.84

Note to self: pEC50 recorded for `O=C(N(CC12CCC(c3nc(C4CC4)no3)(CC1)CC2)c1cccc(-c2ccc3c(c2)OCO3)c1)C12CC(F)(C1)C2` was 7.16

Just so you know, measured pEC50 for `COc1cc(-c2cccc(N(CC34CCC(c5nnc(C6CC6)o5)(CC3)CC4)C(=O)C34CC(F)(C3)C4)c2)ccn1` came out at 6.92

----------
Test system: UniProt Q96RI1
Experimental protocol: transient human FXR/Gal4-luciferase reporter assay
Assay type: cell-based
Condition info: Gal4-hFXR fusion construct, HEK293 reporter cells; response relative to 8 μM GW-4064
A collection of compounds and their measured pEC50
Value format note: pEC50 is -log10 of concentration (mol/L); just state the number.

{"Entry smiles": "N#Cc1cccc(-c2cccc(N(CC34CCC(c5nc(C6CC6)no5)(CC3)CC4)C(=O)C34CC(F)(C3)C4)c2)n1", "pEC50": 6.83}

Input `CCOc1ncc(-c2ccnc(N(CC34CCC(c5nc(C6CC6)no5)(CC3)CC4)C(=O)C34CC(F)(C3)C4)c2)cn1` . Output pEC50: 6.95

The compound listed as `Cc1nc2ccc(-c3ccnc(N(CC45CCC(c6nc(C7CC7)no6)(CC4)CC5)C(=O)C45CC(F)(C4)C5)c3)cc2o1` has a reported pEC50 of 7.15

----------
Test system: UniProt:Q96RI1
Experimental protocol: transient human FXR/Gal4-luciferase reporter assay
Type: cell-based
Condition info: Gal4-hFXR fusion construct, HEK293 reporter cells; response relative to 8 μM GW-4064
Observable: pEC50
// pEC50: -log10(molar conc.)

Sample records with pEC50:
{"Entry smiles": "CC(=O)Nc1cccc(-c2cccc(N(CC34CCC(c5nc(C6CC6)no5)(CC3)CC4)C(=O)C34CC(F)(C3)C4)c2)c1", "Observable": "pEC50", "Recorded result": 6.62}
{"Entry smiles": "CC(=O)Nc1cn2nc(-c3cccc(N(CC45CCC(c6nc(C7CC7)no6)(CC4)CC5)C(=O)C45CC(F)(C4)C5)c3)ccc2n1", "Observable": "pEC50", "Recorded result": 5.91}
{"Entry smiles": "N#Cc1ccc(-c2cccc(N(CC34CCC(c5nc(C6CC6)no5)(CC3)CC4)C(=O)C34CC(F)(C3)C4)c2)nc1", "Observable": "pEC50", "Recorded result": 5.90}

Value of measured pEC50 for the entry `CC(C)Oc1ccc(-c2ccnc(N(CC34CCC(c5noc(C(C)(C)F)n5)(CC3)CC4)C(=O)OC(C)(C)C(F)(F)F)n2)cc1` : 7.17

Record `O=C(N(CC12CCC(c3noc(C(F)(F)F)n3)(CC1)CC2)c1cccc(-c2cnc(C3CC3)nc2)c1)C12CC(F)(C1)C2` , field pEC50: 6.80

The value of pEC50 measured for the molecule `CC(C)c1nc(C23CCC(CN(C(=O)C45CC(F)(C4)C5)c4cccc(-c5ccc(NS(C)(=O)=O)cc5)c4)(CC2)CC3)no1` turned out to be 7.40

The molecule listed as `O=C(N(CC12CCC(c3noc(C(F)(F)F)n3)(CC1)CC2)c1cccc(C2CC2)c1)C12CC(F)(C1)C2` shows pEC50 equal to 6.84
